B1: IFRG15 (parent)
chain: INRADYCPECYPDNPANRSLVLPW

Variants of: B1
Assay: protein stability index of a GFP-peptide fusion (GPS, HEK-293T) (PSI 1-6); higher = more stable;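 also: lentivirally expressed fusions sorted by FACS into six bins by GFP to DsRed ratio, PSI derived from sequencing read proportions per bin multiplied by bin number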
Settings: c terminus: a fixed tail appended
readout: protein stability index
Lab note: record the figure alone, no unit after it.

Solved entries:
- mutationAnnotation: "C7I"
  protein stability index: 2.27
- mutationAnnotation: "C10N"
  protein stability index: 2.62
- mutationAnnotation: "L20H"
  protein stability index: 2.4
- mutationAnnotation: "R3W"
  protein stability index: 1.35
- mutationAnnotation: "N2Y"
  protein stability index: 1.7

stdin: For the variant shown here, `Y6F` , give the reported protein stability index.
stdout: 2.22

stdin: For the variant shown here, `D5T` , give the reported protein stability index.
stdout: 1.55

stdin: For the variant shown here, `Y6Q` , give the reported protein stability index.
stdout: 3.12

stdin: For the variant shown here, `Y6S` , give the reported protein stability index.
stdout: 3.25

stdin: For the variant shown here, `C10R` , give the reported protein stability index.
stdout: 2.29

stdin: For the variant shown here, `R3N` , give the reported protein stability index.
stdout: 2.36

stdin: For the variant shown here, `R18N` , give the reported protein stability index.
stdout: 2.22

stdin: For the variant shown here, `W24D` , give the reported protein stability index.
stdout: 3.89

stdin: For the variant shown here, `I1F` , give the reported protein stability index.
stdout: 2.34

stdin: For the variant shown here, `R3H` , give the reported protein stability index.
stdout: 2.39

stdin: For the variant shown here, `P8K` , give the reported protein stability index.
stdout: 2.47

stdin: For the variant shown here, `N14K` , give the reported protein stability index.
stdout: 2.25

stdin: For the variant shown here, `R3E` , give the reported protein stability index.
stdout: 2.42

stdin: For the variant shown here, `N2T` , give the reported protein stability index.
stdout: 1.78

stdin: For the variant shown here, `E9W` , give the reported protein stability index.
stdout: 1.58

stdin: For the variant shown here, `C10E` , give the reported protein stability index.
stdout: 2.83

stdin: For the variant shown here, `P12T` , give the reported protein stability index.
stdout: 1.98

Cited source: the supplement of paper PMC10567573
